# target of assay: Cbl-b (Homo sapiens, UniProt Q13191)
# Construct: Cbl-b-HiBit KI Jurkat Cells were purchased from Promega; host or cells: Cbl-b-HiBiT knock-in Jurkat cells
# Sequence (Q13191 whole entry): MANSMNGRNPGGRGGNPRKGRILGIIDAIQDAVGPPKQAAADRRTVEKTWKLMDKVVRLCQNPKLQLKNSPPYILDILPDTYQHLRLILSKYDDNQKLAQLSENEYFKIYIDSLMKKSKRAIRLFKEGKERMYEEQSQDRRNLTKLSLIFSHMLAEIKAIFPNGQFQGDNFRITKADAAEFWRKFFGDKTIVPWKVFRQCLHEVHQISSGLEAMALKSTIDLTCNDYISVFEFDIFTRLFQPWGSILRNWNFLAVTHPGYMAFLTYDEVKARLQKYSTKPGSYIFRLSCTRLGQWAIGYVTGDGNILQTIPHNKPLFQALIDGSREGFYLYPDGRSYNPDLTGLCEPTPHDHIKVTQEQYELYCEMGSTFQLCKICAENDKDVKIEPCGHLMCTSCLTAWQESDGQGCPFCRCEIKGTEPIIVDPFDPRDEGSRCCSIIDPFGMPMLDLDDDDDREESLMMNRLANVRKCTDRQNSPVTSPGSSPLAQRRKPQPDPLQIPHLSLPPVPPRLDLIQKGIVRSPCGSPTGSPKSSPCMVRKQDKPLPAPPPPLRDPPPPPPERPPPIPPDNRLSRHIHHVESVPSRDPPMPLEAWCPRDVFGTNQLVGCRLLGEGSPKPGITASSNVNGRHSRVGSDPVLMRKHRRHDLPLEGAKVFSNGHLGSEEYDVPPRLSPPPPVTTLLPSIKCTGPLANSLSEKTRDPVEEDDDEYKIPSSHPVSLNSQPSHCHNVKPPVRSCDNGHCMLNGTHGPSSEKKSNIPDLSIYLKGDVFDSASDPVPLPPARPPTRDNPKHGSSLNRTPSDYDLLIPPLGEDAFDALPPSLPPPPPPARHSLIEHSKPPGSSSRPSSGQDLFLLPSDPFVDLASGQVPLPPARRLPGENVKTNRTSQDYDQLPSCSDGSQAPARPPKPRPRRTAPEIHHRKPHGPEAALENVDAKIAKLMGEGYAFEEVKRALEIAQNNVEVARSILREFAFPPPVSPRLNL
# assay details: Cbl-b Degradation Method A (FACS, anti-Cbl-b antibody staining)
# Format: cell-based
# experimental parameters: Cbl-b-HiBit KI Jurkat Cells, incubated at least 20 hours; half maximal degradation; read-out: Cbl-b Degredation Method A IC50
readout kind: DC50

A selection of reference data follows.
{"molecule": "COc1c(N2CCC(O[C@H]3CC[C@H](CN4CCN(Cc5cc6c(c(C(F)(F)F)c5)CN(c5cccc(C7(Cc8nncn8C)COC7)c5)C6=O)CC4)CC3)CC2)ccc2c1CN(C1CCC(=O)NC1=O)C2=O (some centres unmarked)", "target of assay": "Cbl-b (Homo sapiens, UniProt Q13191)", "DC50": "< 5 nM"}
{"molecule": "Cc1cc(N2CCC(CN3CCC4(CCN(c5cc6c(c(C(F)(F)F)c5)CN(c5cccc([C@]7(Cc8nncn8C)C[C@@H](C#N)C7)c5)C6=O)C4)C3)CC2)c(F)c2c1C(=O)N(C1CCC(=O)NC1=O)C2 (some centres unmarked)", "target of assay": "Cbl-b (Homo sapiens, UniProt Q13191)", "DC50": "5 to 50 nM"}
{"molecule": "Cn1cnnc1CC1(c2cccc(N3Cc4c(cc(N5CC6(CCN(CC7CCN(c8ccc9c(n8)CN(C8CCC(=O)NC8=O)C9=O)CC7)CC6)C5)cc4C(F)(F)F)C3=O)c2)COC1 (centres unmarked)", "target of assay": "Cbl-b (Homo sapiens, UniProt Q13191)", "DC50": "5 to 50 nM"}
{"molecule": "Cn1cnnc1CC1(c2cccc(N3Cc4c(cc(CN5CCC(COCCOc6ccc7c(c6)C(=O)N(C6CCC(=O)NC6=O)C7=O)CC5)cc4C(F)(F)F)C3=O)c2)COC1 (centres unmarked)", "target of assay": "Cbl-b (Homo sapiens, UniProt Q13191)", "DC50": "50 to 500 nM"}

Turning to the following molecule.
Query (molecule): Cn1cnnc1CC1(c2cccc(N3Cc4c(cc(N5CC6(CCN(C[C@H]7CC[C@H](OC8CCN(c9ccc%10c(c9F)CN(C9CCC(=O)NC9=O)C%10=O)CC8)CC7)CC6)C5)cc4C(F)(F)F)C3=O)c2)COC1 (some centres unmarked) ; field requested: DC50
< 5 nM
